- System: MGC-803
- ASSAY_NAME: Antiproliferative activity against human MGC803 cells assessed as growth inhibition after 72 hrs by MTT assay
- Type: functional, cell-based
- MEASUREMENT_SETUP: MGC-803, 72 h
Exercise: for every item that follows, state its recorded IC50.
Only the number, expressed in µM, is required.

Give recorded IC50 with MGC-803 for the following molecule: C=C1C(=O)[C@]23[C@H](OC(=O)CCCc4ccc(N(CCCl)CCCl)cc4)[C@H]1CC[C@H]2[C@@]12CO[C@@]3(O)[C@@H](O)[C@@H]1C(C)(C)CCC2=O 3.95

Moving on to the next molecule: C=C1C(=O)[C@]23[C@H](OC(=O)CCC(=O)N[C@@H](Cc4ccc(N(CCCl)CCCl)cc4)C(=O)OC)[C@H]1CC[C@H]2[C@@]12CO[C@@]3(O)[C@@H](O)[C@@H]1C(C)(C)CC[C@@H]2O 9.3

What about N[C@@H](Cc1ccc(N(CCCl)CCCl)cc1)C(=O)O ? 36.9

And C=C1C(=O)[C@]23[C@H](OC(=O)CCCc4ccc(N(CCCl)CCCl)cc4)[C@H]1CC[C@H]2[C@@]12CO[C@@]3(O)[C@@H](O)[C@@H]1C(C)(C)CC[C@@H]2OC(C)=O ? 2.25
